This section presents compounds with their documented inhibition values.
- target or system: Pancreatic triacylglycerol lipase (Sus scrofa) (UniProt P00591)
- Sequence (P00591 whole entry): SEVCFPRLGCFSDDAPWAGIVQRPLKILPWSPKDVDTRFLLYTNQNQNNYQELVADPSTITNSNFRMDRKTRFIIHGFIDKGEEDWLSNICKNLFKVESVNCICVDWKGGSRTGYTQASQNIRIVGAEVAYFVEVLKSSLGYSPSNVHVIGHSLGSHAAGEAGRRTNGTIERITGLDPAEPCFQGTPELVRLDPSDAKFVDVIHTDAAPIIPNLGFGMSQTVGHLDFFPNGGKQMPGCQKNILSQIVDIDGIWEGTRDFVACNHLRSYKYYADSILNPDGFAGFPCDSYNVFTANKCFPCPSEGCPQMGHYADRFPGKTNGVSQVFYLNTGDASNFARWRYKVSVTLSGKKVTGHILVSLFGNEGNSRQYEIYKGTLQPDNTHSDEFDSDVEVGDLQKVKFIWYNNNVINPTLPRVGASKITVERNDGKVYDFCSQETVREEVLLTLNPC
- assay procedure: Inhibition of porcine pancreatic lipase using p-nitrophenylbutyrate as substrate assessed as formation of p-nitrophenol at 100 uM preincubated for 15 mins followed by substrate addition measured after 15 mins relative to control
Please give a number only; it is taken to be in %.

compound	inhibition / %
CC1(C)C=Cc2cc3cc(-c4cc(O)cc(O)c4)oc3cc2O1	67.9
Oc1cc(O)cc(/C=C/c2ccc(O)cc2O)c1 [OXYRESVERATROL]	28.8
O=C1CC(c2ccc(O)cc2O)Oc2cc(O)cc(O)c21 (stereo not given) [STEPPOGENIN]	4.4
Oc1cc(O)cc(-c2cc3cc4ccoc4cc3o2)c1	31.7
Oc1cc(O)cc(-c2cc3ccc(O)c(O)c3o2)c1	55.9

Challenge: Request the reported inhibition associated with CC(C)=CCc1cc2cc(-c3cc(O)cc(O)c3)oc2cc1O [MORACIN N]
Response given: 61.7

Challenge: I am curious: what inhibition value has been reported for CC(C)=CCC/C(C)=C/Cc1c(O)cc(O)cc1-c1cc2ccc(O)cc2o1 [ALBAFURAN A] ?
Response given: 45.4

Challenge: So what's the measured inhibition for this one? COc1ccc(-c2oc3cc(O)cc(O)c3c(=O)c2OC2O[C@H](CO)[C@@H](O)[C@H](O)[C@H]2O)cc1 (stereo not given in full)
Response given: 12.1

Challenge: # lookup: inhibition of O=c1cc(-c2ccc(O)cc2O)oc2cc(O)cc(O)c12 [NORARTOCARPETIN]
Response given: 45.3

Challenge: For the compound COc1cc(-c2oc3cc(O)cc(O)c3c(=O)c2O)ccc1O [ISORHAMNETIN] , what inhibition is on record?
Response given: 32.4

Challenge: Give its inhibition value. Item: O=c1c(O)c(-c2ccc(O)c(O)c2)oc2cc(O)cc(O)c12
Response given: 36.3

Challenge: Value lookup for inhibition; key = Oc1cc(O)cc(-c2cc3ccc(O)cc3o2)c1 [MORACIN M]
Response given: 21.5

Challenge: Which inhibition value belongs to CC(C)=CCc1c(O)ccc(C(=O)/C=C/c2ccc(O)cc2O)c1O [MORACHALCONE A] ?
Response given: 73

Challenge: Look at this compound and give its reported inhibition. O=C1CC(c2ccc(O)cc2O)Oc2cc(O)ccc21 (stereo not given)
Response given: 69.6

Challenge: Consider the compound CC(C)=CCc1c(O)cc(-c2cc3ccc(O)cc3o2)cc1O [MORACIN C] and give its measured inhibition.
Response given: 64.8

Challenge: So what does the record say about inhibition for O=c1c(O[C@@H]2O[C@H](CO)[C@@H](O)[C@H](O)[C@H]2O)c(-c2ccc(O)c(O)c2)oc2cc(O)cc(O)c12 [ISOQUERCETIN] ?
Response given: 12.6

Challenge: Returns the measured inhibition for the input compound. Input: O=c1c(O)c(-c2ccc(O)cc2)oc2cc(O)cc(O)c12 [KAEMPFEROL]
Response given: 50.3

Challenge: Look at this compound and give its reported inhibition. O=c1c(O[C@@H]2O[C@H](CO)[C@@H](O)[C@H](O)[C@H]2O)c(-c2ccc(O)cc2)oc2cc(O)cc(O)c12 [ASTRAGALIN]
Response given: 10.8

Challenge: Which inhibition reading was recorded for the compound Oc1cc(O)cc(-c2cc3cc(O)c(O)cc3o2)c1 ?
Response given: 59.1

Challenge: Value lookup for inhibition; key = CC(C)=CCc1c(-c2ccc(O)cc2O)oc2c(CC=C(C)C)c(O)cc(O)c2c1=O [KUWANON C]
Response given: 72.5

----------
Target or system Pancreatic triacylglycerol lipase (Sus scrofa); recorded quantity pIC50.
pIC50: −log10 of the molar value.

Previously resolved entries follow.
molecule	pIC50
COc1cc(-c2oc3cc(O)cc(O)c3c(=O)c2O)ccc1O [ISORHAMNETIN]	< 4.15
CC(C)=CCC/C(C)=C/Cc1c(O)cc(O)cc1-c1cc2ccc(O)cc2o1 [ALBAFURAN A]	< 4.15
O=c1c(O[C@@H]2O[C@H](CO)[C@@H](O)[C@H](O)[C@H]2O)c(-c2ccc(O)cc2)oc2cc(O)cc(O)c12 [ASTRAGALIN]	< 4.15
CC(C)=CCc1cc2cc(-c3cc(O)cc(O)c3)oc2cc1O [MORACIN N]	4.53
CC(C)=CCc1c(O)cc(-c2cc3ccc(O)cc3o2)cc1O [MORACIN C]	4.49

Challenge: Please tell me: pIC50 of Oc1cc(O)cc(-c2cc3cc4ccoc4cc3o2)c1 , system Pancreatic triacylglycerol lipase (Sus scrofa)?
Response given: < 4.15

Challenge: Pancreatic triacylglycerol lipase (Sus scrofa) / pIC50 / O=C1CC(c2ccc(O)cc2O)Oc2cc(O)cc(O)c21 (centres undefined) [STEPPOGENIN] : value?
Response given: < 4.15

Challenge: Tell me reported pIC50 for Oc1cc(O)cc(-c2cc3ccc(O)c(O)c3o2)c1 , tested with Pancreatic triacylglycerol lipase (Sus scrofa).
Sequence (P00591 whole entry): as above
Response given: 4.20

----------
- target or system: Pancreatic triacylglycerol lipase (Sus scrofa)
# maps each entry to its IC50

compound	target or system	IC50
Oc1cc(O)cc(-c2cc3cc(O)c(O)cc3o2)c1	Pancreatic triacylglycerol lipase (Sus scrofa)	64.8 µM
O=C1CC(c2ccc(O)cc2O)Oc2cc(O)ccc21 (stereo unspecified)	Pancreatic triacylglycerol lipase (Sus scrofa)	56.4 µM

Challenge: Enter reported IC50 observed with Pancreatic triacylglycerol lipase (Sus scrofa) for Oc1cc(O)cc(/C=C/c2ccc(O)cc2O)c1
Response given: > 70 µM

Challenge: Item O=c1cc(-c2ccc(O)cc2O)oc2cc(O)cc(O)c12 with Pancreatic triacylglycerol lipase (Sus scrofa) - IC50?
Response given: > 70 µM

Challenge: Param readout = IC50; param system = Pancreatic triacylglycerol lipase (Sus scrofa); param query = O=c1c(O)c(-c2ccc(O)cc2)oc2cc(O)cc(O)c12 ; response: value
Response given: > 70 µM

Challenge: What value of IC50 on Pancreatic triacylglycerol lipase (Sus scrofa) does Oc1cc(O)cc(-c2cc3ccc(O)cc3o2)c1 have?
Response given: > 70 µM
